Subject Of Test: human α-Synuclein pre-formed fibrils (human, UniProt P37840 1-140)
Assay Comment: cell-based or functional assay
Readout Label: % Inhibition (primary neuron assay) (%)

binder="9064 (antibody, IgG1, V domains shown) VH: EVHLVESGGGLVQPKGSLKLSCAASGFTFNTYAMHWVRQAPGKGLEWVARIRNKSNNYATYYADSVKDRFTISRDDSQSMLFLQMDNLKTEDTAIYYCVRGGLSPFDYWGQGTTLTVSS VL: QIVLTQSPAIMSASPGEKVTMTCSASSSVTYMHWYQQKSGTSPKRWIYDTSKLASGVPARFSGSGSGTSYSLTISSMEAEDAATYYCQQWSSNPPTFGGGTKLEIR" readout_label="% Inhibition (primary neuron assay)" quantitative_result=88.1
binder="9052 (antibody, IgG2b, V domains shown) VH: EVQLVESGGVLVKPGGSLKLSCAASGFTFSSFAMSWVRQTPEKRLEWVATISNGGSYTYYPDSVKGRFTISRDNAKNTLYLRMSSLRSEDTAMYYCVRRATTRGYFDYWGQGTTLTVSS VL: QIFLTQSPAIMSASPGEKVTMTCSASSSVSYMYWYQQKPGSSPRLLIYDSSKLASGVPVQFSGSGSGTSYSLTISRMEAEDAATYYCQQWRSYPPTFGAGTKLELK" readout_label="% Inhibition (primary neuron assay)" quantitative_result=84.3
binder="9071 (antibody, IgG1, V domains shown) VH: EVHLVESGGGLVQPKGSLKLSCAASGFTFNTYAMHWVRQAPGKGLEWVARIRNKSNNYATYYADSVKDRFTISRDDSQSMLFLQMDNLKTEDTAIYYCVRGGLSPFDYWGQGTTLTVSS VL: QIVLTQSPAIMSASPGEKVTMTCSASSSVTYMHWYQQKSGTSPKRWIYDTSKLASGVPARFSGSGSGTSYSLTISSMEAEDAATYYCQQWSSNPPTFGGGTKLEIR" readout_label="% Inhibition (primary neuron assay)" quantitative_result=79.3
